Parameter pKd: see the listing below.
B1: NELF-E aptamer (parent)
chain: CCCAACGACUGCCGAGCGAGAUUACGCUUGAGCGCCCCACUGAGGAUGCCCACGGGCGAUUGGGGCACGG

Variants of: B1
PROTOCOL NOTES: HiTS-RAP
APPLIED CONDITIONS: with NELF-E (Drosophila)
// pKd here means minus log10 of the molar concentration (mol/L)

Here is how some variants turned out for pKd.
INSERT INTO measurements (change, measurement) VALUES
  ('C13G G14U', 8.23),
  ('G7U C38U', 8.05);

Below: the item to evaluate.
Prompt line: Retrieve pKd measured for C13G A67G and print it.
Response line: 8.25
